Each recorded value in this set is attributed to paper PMC5540273.

Tested on: p38-delta
Recorded conditions: concentration: 1 μM, replicates: in singlicate; n = 1;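 further: KINOMEscan kinase panel screen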
Lab note: cut-off is 30%. Strictly less in %Inh is true. Exactly 30% or more is false.

{"columns": ["Compound", "Group label"],
 "data": [
  ["Cc1ccc(NC(=O)Nc2ccc(Cl)c(C(F)(F)F)c2)cc1-c1ccc(C(=O)Nc2ccncc2)cc1 [GSK1398470]", "true"],
  ["O=c1cc(N2CCOCC2)nc2n(Cc3ccccc3F)ccn12 [GSK2297428]", "true"],
  ["CCn1c(-c2c(N)noc2C)nc2cnccc21 [SB-737856]", "true"],
  ["COC(=O)c1cccc(NC(=O)NC2CCN(c3ccnc(Nc4ccc(F)cc4)n3)C2)c1 (stereo not drawn) [GSK1379725]", "false"],
  ["O=C(Nc1n[nH]c2nc(-c3ccco3)c(Br)cc12)C1CCN(Cc2ccccc2)C1.O=C(O)[C@H](O)[C@@H](O)C(=O)O (stereo not drawn) [SB-742034]", "true"],
  ["Cn1cncc1C(=O)NC1CCN(c2ccnc(Nc3ccc(F)cc3)n2)C1 (stereo not drawn) [GSK1379717]", "true"],
  ["NS(=O)(=O)c1cccc(N/C=C2\\C(=O)Nc3ccc(S(=O)(=O)Cc4c(Cl)cccc4Cl)cc32)c1 [GSK398099]", "true"],
  ["O=C(Nc1n[nH]c2cc(-c3ccsc3)ccc12)C1CC1 [SB-732932]", "true"],
  ["Fc1ccc(-c2nc3n(c2-c2ccncc2)CCS3)cc1 [GI98581]", "true"],
  ["Cc1ccccc1-c1cc(-c2c[nH]nc2-c2ccccn2)ccn1 [GW680061]", "true"],
  ["CNc1cc(-c2ccc3c(N)n[nH]c3c2)nc(N)n1 [GSK2224810]", "false"],
  ["Cc1ccc(NC(=O)Nc2ccccc2F)cc1-c1ccc(C(=O)Nc2ccncc2)cc1 [GSK1398477]", "false"],
  ["Cc1cnc(N)c(/C=C/c2cncc(C(=O)NCCc3ccc(Cl)cc3Cl)c2)c1.Cl [GSK190937]", "true"],
  ["Cc1nccc(-c2c(-c3ccc(F)cc3)ncn2CCCN2CCOCC2)n1.Cl [SB-282975]", "true"],
  ["Cc1ccc(-c2nc(Nc3ccncc3)c3ccccc3n2)s1 [GSK189015]", "false"],
  ["COc1ccc2cc(-c3nc(-c4ccccc4C(C)C)[nH]c3-c3ccncc3)ccc2c1 [SB-660566]", "false"],
  ["COc1cccc(NC(=O)Nc2ccc(C)c(-c3ccc(C(=O)Nc4ccncc4)cc3)c2)c1 [GSK1398474]", "true"],
  ["CS(=O)(=O)CCNCc1nc(-c2ccc3ncnc(Nc4ccc5c(cnn5Cc5ccccc5)c4)c3c2)cs1.Cl.Cl [GW569716]", "true"]
]}

---

Test system: PHKG1
Recorded conditions: concentration: 1 μM, replicates: in singlicate; n = 1
Below, each of the compounds is paired with its reported %Inh value.

{"columns": ["Compound", "%Inh"],
 "data": [
  ["CCc1ccc(-c2ccc3c(c2)-c2n[nH]cc2S(=O)(=O)N3C)cc1", "0%"],
  ["Cc1ccccc1Cn1ccn2c(=O)cc(N3CCOCC3)nc12", "0%"],
  ["CC(=O)c1cccc(NC(=O)NC2CCN(c3ccnc(Nc4ccc(F)cc4)n3)C2)c1 (stereo not drawn)", "0%"],
  ["CNCc1ccc2nc(NC(=O)c3ccc(C(C)(C)C)cc3)cn2c1", "5%"],
  ["Cc1ccc(NC(=O)Nc2ccc(Cl)cc2)cc1-c1ccc(C(=O)Nc2ccncc2)cc1", "0%"],
  ["CCCCc1nn2ncccc2c1-c1ccnc(NC2CC2)n1", "0%"],
  ["Cc1ccccc1-c1cc(-c2c[nH]nc2-c2ccccn2)ccn1", "0%"],
  ["COc1cccc(NC(=O)Nc2ccc(C)c(-c3ccc(C(=O)Nc4ccncc4)cc3)c2)c1", "0%"],
  ["Cc1c(Cn2c3ccccc3n3c(=O)cc(N4CCOCC4)nc23)cccc1C(F)(F)F", "12%"]
]}
